experiment: Secondary Assay for lipid storage modulators: AML12 cell LDSA assay for probe SAR; conditions: AML12 lipid droplet accumulation, BODIPY 493/503 imaging, oleate; series mostly up to 46.1 µM
Records with an inconclusive call do not appear. Active and inactive are the calls of the source. Calls come from the whole dose curve; as a rule, active = well fitted curve in the direction sought with a large enough effect; inconclusive = small, poorly fitted or top-dose-only effect, or effect the other way, or another doubt; inactive = no such curve, though single readings can be large or run the other way.
property: outcome

- O=C(NC1CCCc2c1cnn2-c1ccc(F)cc1F)c1cccc(F)c1F (stereo not drawn): inactive
- Cc1cccc(-c2ccc3ncnc(NCc4cccc(F)c4)c3c2)c1: inactive
- CCOC(=O)C1CCN(C(=O)C(C)(C)NC(=O)Nc2cccc(C(=O)OC)c2)CC1: inactive

* * *

Test: Secondary Assay for lipid storage modulators: AML12 cell LDSA assay for probe SAR
Settings: AML12 lipid droplet accumulation, BODIPY 493/503 imaging, oleate; series mostly up to 46.1 µM
Protocol: NIH Molecular Libraries Probe Production Centers Network [MLPCN] NIH Chemical Genomics Center [NCGC] […] NCGC Assay Protocol Summary: The assay was performed with AML12 cells, using an oleic acid feeding protocol similar to the S3 assay. […] Fluorescence was detected by excitation of the fluorophores with a 488-nm laser on an Acumen Explorer (TTP Lab Tech). […] Cells were detected using channel 3 (575-640 nm) with 5-um width and 100-um depth filters. […]
Results filed as inconclusive are left out. Active and inactive are the calls of the source. Calls come from the whole dose curve; as a rule, active = well fitted curve in the direction sought with a large enough effect; inconclusive = small, poorly fitted or top-dose-only effect, or effect the other way, or another doubt; inactive = no such curve, though single readings can be large or run the other way.
Outcomes: t for active, f for inactive

- CC(C)(C)OC(=O)NCCOCCOCCOc1ccc(-n2ncc3c2CCCC3NC(=O)c2ccccn2)cc1 (stereo not drawn): f
- CC1=C(C(=O)NC2CCCc3c2cnn3-c2ccc(F)cc2F)OCCO1 (stereo not drawn): f
- O=C(NC1CCCc2c1cnn2-c1cc(F)cc(F)c1)c1cccc2nccnc12 (stereo not drawn): f
- CCOC(=O)C1CCN(C(=O)C(C)(C)NC(=O)Nc2ccc3sccc3c2)CC1: f
- COc1ccc(Cl)cc1NC(=S)N1CCN(c2ccccc2)CC1: f
- O=C(Cc1cccs1)Nc1nc(-c2ccc(F)cc2)cs1: f
- COc1ccc(Cl)cc1NC(=S)N1CCN(c2ccc(F)cc2)CC1: f
- CCOc1ccc(CCNC(=O)c2cc3sccc3n2C)cc1OCC: f
- O=C(Nc1cccc2nn(-c3ccc(F)cc3)cc12)c1ccccn1: f
- COc1ccccc1NC(=S)N1CCN(c2cc(Cl)ccc2C)CC1: f
- COc1ccc(-c2cnc(SCC(=O)Nc3nc(C)cs3)n2Cc2ccco2)cc1: f
- O=C(NC1CCCc2c1cnn2-c1ccc(F)cc1F)c1cnsn1 (stereo not drawn): f
- Cc1sc(NC(=O)Cc2cccs2)nc1-c1ccccc1: f
- CCOC(=O)C1CCN(C(=O)C(C)(C)NC(=O)Nc2ccc(OC)c(Cl)c2)CC1: f
- COCCn1c(-c2ccc(C)cc2)cnc1SCC(=O)Nc1nc(C)cs1: f
- O=C(NC1CCCc2c1cnn2-c1ccc(F)cc1F)C1CCCCC1 (stereo not drawn): f
- COc1ccc(CCNC(=O)c2cc3sccc3n2Cc2ccc(F)cc2)cc1OC: t
- O=C(Cc1cccs1)Nc1nc(-c2ccncc2)cs1: f
- Cc1ccc(CC(=O)Nc2nc(-c3cccs3)cs2)cc1: f
- CC(C)(C)n1ncc2c(=O)n(Cc3ccc(-c4ccccc4C#N)cc3)cnc21: f
- CCn1c(C(=O)NCCc2ccc(OC)c(OC)c2)cc2sccc21: f
- O=C(NC1CCCc2c1cnn2-c1ccccc1F)c1ccc2ncccc2c1 (stereo not drawn): f
- O=C(NC1CCCc2c1cnn2-c1ccc(F)cc1F)c1ccccc1 (stereo not drawn): f

Reference source: PubChem BioAssay AID504434
